The measured values listed here are drawn from patent US20210317225A1.

# Measured on: T1, Human CD137 shuffle 3 (amino acids 115-138 replaced by wild boar CD137) (human, amino acids 115-138 from wild …, UniProt Q07011 24-255)
# T1 construct: also called shuffle construct 3
# T1 chain: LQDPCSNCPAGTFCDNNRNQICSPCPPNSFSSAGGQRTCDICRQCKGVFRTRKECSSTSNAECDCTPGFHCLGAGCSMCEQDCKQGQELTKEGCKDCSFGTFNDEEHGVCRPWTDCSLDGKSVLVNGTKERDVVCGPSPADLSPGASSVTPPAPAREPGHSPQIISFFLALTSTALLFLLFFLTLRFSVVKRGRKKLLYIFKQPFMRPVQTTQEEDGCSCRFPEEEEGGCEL
# Procedure details: flow cytometry on transfected HEK293T-17 cells, 1 µg/mL antibody
Endpoint label: binding result

CD137 antibody clone 012 (rabbit) (antibody, human IgG1, kappa, V domains shown, also called Clone 12; CD137 clone 012) VH: QSVEESGGRLVTPGTPLTLTCTVSGFSLSDYYMTWVRQAPGKGLEYIGIMSGSGSTYYASWAKGRFTISKTSSTTLELKITSPTTEDTAIYFCARDGDYAGWGYATGAFDPWGPGTLVTVSS VL: AAVLTQTPSPVSAAVGGTVTISCQASQSVVGNSLLSWFQKKPGQPPKLLIYSASSLASGVPSRFKGSGSGTQFTLTISDLESDDAATYYCTGRYNSDTDTFVFGGGTEVVVKR | binds
CD137 antibody clone 003 (rabbit) (antibody, human IgG1, kappa, V domains shown, also called Clone 3; CD137 clone 003) VH: QSVEESGGRLVTPGTPLTLTCTASGFTISSYHMIWVRQAPGEGLEWIGDIYGGTATTDYASWAKGRFTISKTSTTVDLKMTSLTTEDTATYFCARARYSGGSYANYVFNLWGQGTLVTVSS VL: DIVMTQTPASVEAAVGGTVTIKCQASQSISSYLAWYQQKPGQPPKLLIYRTSTLESGVPSRFKGSGSGTEFTLTISDLESADAATYYCQGYDWSSSNRYDNTFGGGTEVVVKR | binds
CD137 antibody clone 005 (rabbit) (antibody, human IgG1, kappa, V domains shown, also called Clone 5; CD137 clone 005) VH: QSVEESGGRLVTPGTPLTLTCTASGFTISDFHVTWVRQAPGKGLEWIGTIITSASTTAYATWARGRFTISKSSTTVNLKIVSPTTEDTATYFCARSTYTDTSGYYFDFWGQGTLVTVSS VL: AQVLTQTASPVSAAVGGTVIINCQSSQSIYNGNRLSWYQQKPGQPPKLLIYSASTLASGVSSRFKGSGSGTQFTLAISDVQSDDAATYYCLGSYDCDSADCFAFGGGTEVVVER | binds
